# SYSTEM: D79E DAT (Rattus norvegicus, UniProt P23977, D79E)
# Construct: expressed in transfected cells; host or cells: CHO-K1, stably transfected; intact attached monolayers
# Sequence (P23977 1-619 D79E): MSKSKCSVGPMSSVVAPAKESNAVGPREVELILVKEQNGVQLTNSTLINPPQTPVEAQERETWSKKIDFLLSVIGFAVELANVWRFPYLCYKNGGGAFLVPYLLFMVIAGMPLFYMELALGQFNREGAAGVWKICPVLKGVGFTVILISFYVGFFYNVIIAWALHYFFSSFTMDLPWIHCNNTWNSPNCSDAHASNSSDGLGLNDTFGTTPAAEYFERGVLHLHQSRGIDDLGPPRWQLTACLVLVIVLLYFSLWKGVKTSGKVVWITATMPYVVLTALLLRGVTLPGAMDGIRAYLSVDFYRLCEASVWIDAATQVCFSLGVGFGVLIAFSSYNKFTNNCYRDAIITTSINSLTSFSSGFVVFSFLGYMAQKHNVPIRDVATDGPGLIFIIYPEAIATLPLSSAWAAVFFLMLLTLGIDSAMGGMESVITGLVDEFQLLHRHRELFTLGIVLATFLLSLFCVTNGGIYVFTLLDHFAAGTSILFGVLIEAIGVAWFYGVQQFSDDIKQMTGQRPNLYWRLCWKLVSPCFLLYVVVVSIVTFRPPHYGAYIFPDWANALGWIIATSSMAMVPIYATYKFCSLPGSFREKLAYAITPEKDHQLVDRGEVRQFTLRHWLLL
# MEASUREMENT PROTOCOL: [3H]-dopamine uptake and uptake inhibition, CHO cells stably expressing D79E DAT
# Type: cell-based
PROPERTY NAME: pKi
Just the number, please; pKi means minus log10 of the concentration in mol/L.

OC1(c2ccc(Cl)cc2)c2ccccc2C2=NCCN21 (centres unmarked) [Mazindol, mazindol] ... 7.33

Would you kindly look at the next entry?
Inquiry: pKi lookup needed for COC(=O)C(c1ccccc1)C1CCCCN1 (centres unmarked) [Methylphenidate, methylphenidate] , thanks.
Reply text: 6.79
